Would you kindly list relative solubility at 20 uM for each of these molecules?
Conditions: 20.0 µM
Just the number.

Problem: Recorded relative solubility at 20 uM for "COc1ccccc1OCCN(C)C(=O)c1cc(=O)[nH]c2cc(F)ccc12" , please?
Solution: 1.01

Problem: Again, but for Cc1ccccc1CNc1ccccc1NC(=O)C(O)c1cccnc1 (stereo not given)
Solution: 0.95

Problem: Entry Nc1cccc(C2CN(C(=O)CCl)Cc3ccccc32)c1 (stereo not given) please
Solution: 0.97

Problem: Would you mind doing O=S1(=O)CCC(N2CCN(c3nc(-c4cccnc4)nc4ccccc34)CC2)C1 (stereo not given) as well?
Solution: 1

Problem: // next record NC(=O)[C@@H]1CN(C2CCOCC2)C[C@H]1c1ccccc1 (stereo in doubt)
Solution: 1

* * *

Target: SARS-CoV-2 Main Protease (SARS-CoV-2) (UniProt P0DTD1)
Conditions: 50.0 µM
experimentalReadout: inhibition (%)
Reply numerically in %, unit not repeated.

Problem: Name the reported inhibition value associated with the compound "CC(=O)NCc1cccc(NC(=O)Cc2cncnc2)c1"
Solution: 0

Problem: Another: Cc1cccc(NC(=O)C(C#N)C(=O)CC(C)C)c1 (configuration not stated)
Solution: 0

Problem: Please answer likewise for Cc1nnc(CNC(=O)C2CCOc3ccc(Cl)cc32)n1C1CC1 (configuration not stated)
Solution: 0

Problem: Further, for "Cc1cc(S(=O)(=O)c2c([N+](=O)[O-])cc(C(F)(F)F)cc2[N+](=O)[O-])c(Cl)cc1Cl" ?
Solution: 34.8

Problem: Query "O=C(CCl)N1CCN(Cc2cccc(Cl)c2)CC1" next
Solution: 100

Problem: What would you report for C=CC(=O)N(c1ccc(C2(C)CC2)cc1)C(C(=O)Nc1cccc(CC)c1)c1cccnc1 (configuration not stated) ?
Solution: 47.2

Problem: Also CC(C)(C)C(=O)C(C#N)C(=O)Nc1ccc(Cl)cc1 (configuration not stated) ?
Solution: 0

Problem: // repeat for CCOC(=O)[C@H]1O[C@@H]1C(=O)N[C@@H](CC(C)C)C(=O)NCCC(C)C (stereo in doubt) and report
Solution: 0

Problem: Could you do the same for C=CC(=O)N(c1cc(C(C)(C)C)on1)C(C(=O)NCCc1cccc(F)c1)c1cncc(Cl)c1 (configuration not stated) , please?
Solution: 100

Problem: Next up: Cc1ccncc1NC(=O)C(C)c1cccc(C#N)c1 (configuration not stated)
Solution: 58.4

Problem: Another compound: O=C1CC(c2cccc(NC(=O)Cc3cncnc3)c2)CN1 (configuration not stated)
Solution: 0

Problem: Next record, please: "Cc1ccncc1NC(=O)Cc1ccc(S(N)(=O)=O)cc1"
Solution: -0.94

Problem: Can you check "Cc1ccncc1NC(=O)Cc1cc(Cl)cc(NS(C)(=O)=O)c1" next?
Solution: 54.6

Problem: O=C(NCc1ccccc1OCCO)C(=O)N[C@H]1C[C@H]1C1CCOCC1 (stereo in doubt) , same question.
Solution: 0

Problem: Would you mind doing "COCCc1ccc(Cl)cc1CN1CCN(C(=O)CCl)CC1" as well?
Solution: 100

Problem: What do you get for "CS(=O)(=O)NCCc1ccccc1O" ?
Solution: 0

Problem: Please do the same for "O=C(CCl)N1CCN(Cc2cc(O)cc(Cl)c2)CC1" as well.
Solution: 98.9

Problem: One more compound: "CCc1cccc(CC)c1NC(=O)CN1C(=O)C(=O)c2cc(OC)ccc21"
Solution: 13

Problem: And what about the compound C=CC(=O)N(c1ccc(C(C)(C)C)cc1)C(C(=O)Nc1ccc(F)cc1)c1cccnc1 (configuration not stated) ?
Solution: 31.9

Problem: Same lookup for Cc1ccncc1NC(=O)CC(O)C1CC1 (configuration not stated) , please.
Solution: 2.72

Problem: What do you have for C=CC(=O)N(c1cc(C)cc(N)c1)C(C(=O)NC(C)(C)C)c1cccnc1 (configuration not stated) ?
Solution: 0

Problem: // next record "CC1(C)CCCN1S(=O)(=O)c1ccc2c(c1)C(=O)C(=O)N2"
Solution: 0
